# Target or system: human ether-à-go-go-related gene (hERG) potassium channel (human, UniProt Q12809)
# Sequence (Q12809 whole entry, looked up): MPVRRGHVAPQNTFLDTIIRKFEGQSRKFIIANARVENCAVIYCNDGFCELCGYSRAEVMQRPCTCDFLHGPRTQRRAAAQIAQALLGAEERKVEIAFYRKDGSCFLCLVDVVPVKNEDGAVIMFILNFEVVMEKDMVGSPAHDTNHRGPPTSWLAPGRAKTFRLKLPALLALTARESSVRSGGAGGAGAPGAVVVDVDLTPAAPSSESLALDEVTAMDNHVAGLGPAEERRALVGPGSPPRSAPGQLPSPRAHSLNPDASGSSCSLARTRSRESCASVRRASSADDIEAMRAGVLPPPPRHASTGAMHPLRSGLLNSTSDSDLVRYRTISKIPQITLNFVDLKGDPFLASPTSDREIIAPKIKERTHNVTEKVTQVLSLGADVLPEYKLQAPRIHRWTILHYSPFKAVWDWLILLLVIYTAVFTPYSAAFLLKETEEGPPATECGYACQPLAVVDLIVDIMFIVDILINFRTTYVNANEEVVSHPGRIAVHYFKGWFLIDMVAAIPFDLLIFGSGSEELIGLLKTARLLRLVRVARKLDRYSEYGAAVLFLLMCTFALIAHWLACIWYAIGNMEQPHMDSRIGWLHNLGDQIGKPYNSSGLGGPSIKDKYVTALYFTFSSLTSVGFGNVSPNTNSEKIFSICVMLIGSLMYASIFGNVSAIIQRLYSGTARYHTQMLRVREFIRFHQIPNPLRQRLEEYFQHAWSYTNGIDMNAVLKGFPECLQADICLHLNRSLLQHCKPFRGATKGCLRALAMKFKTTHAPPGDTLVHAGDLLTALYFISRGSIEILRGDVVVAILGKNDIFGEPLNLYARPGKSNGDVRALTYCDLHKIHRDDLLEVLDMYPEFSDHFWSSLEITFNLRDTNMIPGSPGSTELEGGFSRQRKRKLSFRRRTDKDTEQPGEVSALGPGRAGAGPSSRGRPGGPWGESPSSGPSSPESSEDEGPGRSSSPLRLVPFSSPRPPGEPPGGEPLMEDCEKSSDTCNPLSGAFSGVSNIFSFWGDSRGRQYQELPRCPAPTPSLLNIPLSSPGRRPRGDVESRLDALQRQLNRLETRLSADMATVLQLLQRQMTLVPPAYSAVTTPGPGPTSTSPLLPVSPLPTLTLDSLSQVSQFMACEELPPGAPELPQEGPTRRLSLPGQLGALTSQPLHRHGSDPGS
# Measurement notes: primary screen, population patch clamp on CHO cells stably expressing hERG; higher = less effect of the substance
The whole screen tested about 310,000 compounds, of which about 14,000 (4.5%) showed an effect of 50% or more. Effects have a minus sign here. This is one part of a sample in which strong results are shown more often than they occur.
Quantity kind: hERG current change (%, negative = inhibition) at 10uM (%)
Dear colleague, please return just the value in %, with no unit written.

Reference set, count: 3
{"Molecule": "Cc1ccc(C(=O)Nc2ncc(Cc3ccc(F)cc3)s2)o1", "Unit abbreviation": "%", "Observed value": -2.85}
{"Molecule": "Cn1c(SCC(=O)NC2CC2)nnc1-c1cccc(NC(=O)c2ccccc2F)c1", "Unit abbreviation": "%", "Observed value": -3.11}
{"Molecule": "CS(=O)(=O)N(CC(=O)NC1CCCCCC1)Cc1ccccc1", "Unit abbreviation": "%", "Observed value": -1.26}

input: Look up and state reported hERG current change (%, negative = inhibition) at 10uM for CCN(CCCNC(=O)COc1cc(=O)n(C)c2ccccc12)c1ccccc1
output: -41.3

input: Look up and state reported hERG current change (%, negative = inhibition) at 10uM for CCN(CC)S(=O)(=O)c1ccc(Cl)c(C(=O)NCc2ccccc2Cl)c1
output: -24.7

----------
# Target or system: human ether-à-go-go-related gene (hERG) potassium channel (human, UniProt Q12809)
# Measurement notes: primary screen, population patch clamp on CHO cells stably expressing hERG; higher = less effect of the substance
Out of some 310,000 compounds screened, about 14,000 (4.5%) showed an effect of 50% or more. Effects have a minus sign here. What follows is part of a selection rich in strong results, with near analogues and random picks from the rest.
Measured hERG current change (%, negative = inhibition) at 10uM values are reported for all entries that follow.
Dear colleague, please return just the value in %, with no unit written.

{"Compound": "CCOC(=O)c1c(NC(=O)Cn2nc(C(F)(F)F)cc2C)sc2c1CCC2", "Target or system": "human ether-à-go-go-related gene (hERG) potassium channel (human, UniProt Q12809)", "Observed value": -4.65}

input: Look up and state reported hERG current change (%, negative = inhibition) at 10uM for C#CCOc1nc(Nc2cccc([N+](=O)[O-])c2)nc(OCC#C)n1
output: -10.1

input: Look up and state reported hERG current change (%, negative = inhibition) at 10uM for CCOC(=O)C1CCN(C(=O)CN2C(=O)c3ccccc3Sc3ncccc32)CC1
output: 6.06

input: Look up and state reported hERG current change (%, negative = inhibition) at 10uM for COc1ccc(NC(=O)CC(C)CC(=O)NCc2ccccc2)c(OC)c1 (stereo not shown)
output: -0.642

input: Look up and state reported hERG current change (%, negative = inhibition) at 10uM for COc1cc2c(cc1OC)[C@H](C)N(C(=O)NCc1ccccc1)CC2
output: 5.78

input: Look up and state reported hERG current change (%, negative = inhibition) at 10uM for CC(C)NC(=O)CN1C(=O)NC(CCc2ccccc2)C1=O (stereo not shown)
output: 5.75

input: Look up and state reported hERG current change (%, negative = inhibition) at 10uM for Cc1cc(C)cc(N(CCC#N)C(=O)CSc2n[nH]c(N)n2)c1
output: 12.6

----------
# Target or system: human ether-à-go-go-related gene (hERG) potassium channel (human, UniProt Q12809)
# Measurement notes: primary screen, population patch clamp on CHO cells stably expressing hERG; higher = less effect of the substance
About 14,000 (4.5%) of roughly 310,000 compounds showed an effect of 50% or more. Effects have a minus sign here. This is one part of a sample in which strong results are shown more often than they occur.
Classify by measured hERG current change (%, negative = inhibition) at 10uM: 1 (yes) if it is equal to or exceeds -20%, 0 (no) if it is smaller.

input: Decide: hERG current change (%, negative = inhibition) at 10uM of O=C(NCc1ccc(F)cc1)N1CCN(C(=O)c2ccccc2)CC1 >= -20%?
output: 1 (yes)

input: Decide: hERG current change (%, negative = inhibition) at 10uM of CC(C)N1CCN(Cc2cc(F)ccc2-n2cccn2)CC1CCO (stereo not shown) >= -20%?
output: 1 (yes)

input: Decide: hERG current change (%, negative = inhibition) at 10uM of COc1ccc(C)cc1N(C(=O)COc1cccc(F)c1)c1nc2ccccc2s1 >= -20%?
output: 0 (no)

input: Decide: hERG current change (%, negative = inhibition) at 10uM of Cc1cc(C(=O)COC(=O)CC2Sc3ccccc3NC2=O)c(C)n1-c1ccccc1 (stereo not shown) >= -20%?
output: 1 (yes)

input: Decide: hERG current change (%, negative = inhibition) at 10uM of OCC1(CCc2ccccc2)CCN(Cc2ccccc2Cl)CC1 >= -20%?
output: 0 (no)

input: Decide: hERG current change (%, negative = inhibition) at 10uM of C=CCn1c(SCc2ccccc2C#N)nnc1-c1ccccc1O >= -20%?
output: 0 (no)

input: Decide: hERG current change (%, negative = inhibition) at 10uM of Cc1ccc(-n2nc3c(c2NC(=O)c2ccc4c(c2)OCO4)CS(=O)C3)cc1 (stereo not shown) >= -20%?
output: 1 (yes)

input: Decide: hERG current change (%, negative = inhibition) at 10uM of Cc1ccc(C(=O)N/N=C\c2ccc(-c3ccc(Cl)c(Cl)c3)o2)cn1 >= -20%?
output: 0 (no)

input: Decide: hERG current change (%, negative = inhibition) at 10uM of CC(C)N1CCC(N2CCN(Cc3cc(F)ccc3-n3cccn3)CC2CCO)CC1 (stereo not shown) >= -20%?
output: 1 (yes)

input: Decide: hERG current change (%, negative = inhibition) at 10uM of OCC1(CCc2ccccc2)CCN(Cc2cc(Cl)ccc2O)CC1 >= -20%?
output: 0 (no)

----------
# Target or system: human ether-à-go-go-related gene (hERG) potassium channel (human, UniProt Q12809)
# Measurement notes: primary screen, population patch clamp on CHO cells stably expressing hERG; higher = less effect of the substance
The campaign covered roughly 310,000 compounds. About 14,000 (4.5%) showed an effect of 50% or more. Effects have a minus sign here. What follows is part of a selection rich in strong results, with near analogues and random picks from the rest.
Quantity kind: hERG current change (%, negative = inhibition) at 10uM (%)
Dear colleague, please return just the value in %, with no unit written.

Reference set, count: 2
{"Compound": "CC1=C(c2ccc(F)cc2)[N+](=O)C(C)(C)N1[O-]", "Observed value": 17.7}
{"Compound": "CC(CCc1ccccc1)NC(=O)CN1CCN(Cc2ccccc2)C1=O (stereo not drawn)", "Observed value": -18.2}

input: Write hERG current change (%, negative = inhibition) at 10uM of O=C(CN1CCN(Cc2ccccc2F)C1=O)NCCc1ccc(Cl)cc1 ; system used: human ether-à-go-go-related gene (hERG) potassium channel (human, UniProt Q12809)
output: -52.8

input: Write hERG current change (%, negative = inhibition) at 10uM of Cc1cccc(C(=O)NCC2CCN(C(=O)c3cccc(C)c3)CC2)c1 ; system used: human ether-à-go-go-related gene (hERG) potassium channel (human, UniProt Q12809)
output: -51.2

input: Write hERG current change (%, negative = inhibition) at 10uM of O=C(NCC1CCCCC1)c1cccc([N+](=O)[O-])c1 ; system used: human ether-à-go-go-related gene (hERG) potassium channel (human, UniProt Q12809)
output: 9.98

input: Write hERG current change (%, negative = inhibition) at 10uM of O=C(NCC1CCN(C(=O)c2ccc([N+](=O)[O-])cc2)CC1)C(=O)Nc1ccccc1 ; system used: human ether-à-go-go-related gene (hERG) potassium channel (human, UniProt Q12809)
output: -36.8

input: Write hERG current change (%, negative = inhibition) at 10uM of O=C(NCC1CCN(C(=O)c2ccc([N+](=O)[O-])cc2)CC1)c1ccc([N+](=O)[O-])cc1 ; system used: human ether-à-go-go-related gene (hERG) potassium channel (human, UniProt Q12809);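 further: peak tail current of the secondary pulse compared with the same well before compound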
output: -71.3

input: Write hERG current change (%, negative = inhibition) at 10uM of Cc1ccc(NC(=O)C(=O)NCC2CCN(C(=O)c3cccc([N+](=O)[O-])c3)CC2)cc1 ; system used: human ether-à-go-go-related gene (hERG) potassium channel (human, UniProt Q12809);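 further: peak tail current of the secondary pulse compared with the same well before compound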
output: -16.5

input: Write hERG current change (%, negative = inhibition) at 10uM of Cc1cccc(C(=O)NCCCN(C)CCCNC(=O)c2cccc(C)c2)c1 ; system used: human ether-à-go-go-related gene (hERG) potassium channel (human, UniProt Q12809);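 further: peak tail current of the secondary pulse compared with the same well before compound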
output: -52.2

----------
# Target or system: human ether-à-go-go-related gene (hERG) potassium channel (human, UniProt Q12809);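 further: peak tail current of the secondary pulse compared with the same well before compound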
# Measurement notes: primary screen, population patch clamp on CHO cells stably expressing hERG; higher = less effect of the substance
# Protocol: Briefly, Chinese hamster ovary (CHO) cells stably expressing the hERG channel were dislodged from tissue culture flasks and dispensed into PPC plates. […] During the recording, background leak currents were estimated by a 100 ms step to -80 mV from an initial holding potential of -70 mV and subtracted from the subsequent current measurement. The campaign was conducted in two phases using slight differences in recording protocol. […]
Out of some 310,000 compounds screened, about 14,000 (4.5%) showed an effect of 50% or more. The effect is printed as a negative number. For the sample, strong results were picked, then their nearest neighbours and some compounds at random.
Measured hERG current change (%, negative = inhibition) at 10uM values are reported for all entries that follow.
Dear colleague, please return just the value in %, with no unit written.

Reference set, count: 10
{"Molecule": "CCCC1=Nc2cc(C(=O)NCc3ccco3)ccc2Sc2ccccc21", "Observed value": 1.84}
{"Molecule": "Cc1ccc(N2CC(C(=O)Nc3nccs3)CC2=O)cc1 (stereo not drawn)", "Observed value": -5.15}
{"Molecule": "O=C(CN1C(=O)C2CCCCC2C1=O)Nc1ccc(OC(F)F)c(Cl)c1 (stereo not drawn)", "Observed value": -2.68}
{"Molecule": "O=C(NCCN1CCOCC1)c1c(O)nc2ccccn2c1=O", "Observed value": 10.9}
{"Molecule": "CCCCN(C)C(=O)c1nc2ccccn2c1CN1CCN(C/C=C/c2ccccc2)CC1", "Observed value": -83.9}
{"Molecule": "COC(=O)C1=C(C)N(Cc2ccccc2)C(=O)N[C@H]1c1ccco1", "Observed value": 5.95}
{"Molecule": "CCCCN(C)C(=O)c1nc2ccccn2c1CN1CCN(c2ncccn2)CC1", "Observed value": -10.2}
{"Molecule": "COCCN(CCOC)C(=O)c1ccc(CSc2nc3ccccc3s2)cc1", "Observed value": -21.8}
{"Molecule": "N=c1c(C(=O)NCc2ccccc2)cc2c(=O)n3ccccc3nc2n1CCCN1CCOCC1", "Observed value": -78.6}
{"Molecule": "Cn1ncc(N)c1C(=O)Nc1cccc(C(F)(F)F)c1", "Observed value": 1.42}

// moving on: another record for hERG current change (%, negative = inhibition) at 10uM
input: Look up and state reported hERG current change (%, negative = inhibition) at 10uM for O=C(Nc1ccc2c(c1)CCC2)c1cccs1
output: 24.7

The measurements presented in this section are drawn from paper PMC4336329.
